Biological target: Adrenergic β2 (H292 cells) (Homo sapiens)
Construct: endogenous in cells; host or cells: H292 cells
Assay: Assay for Adrenergic β2 Mediated cAMP Production (concentration response, AlphaScreen cAMP detection)
Assay type: cell-based
Conditions: cAMP production, 60 minutes at room temperature, 300 μM rolipram, read-out: β2 pEC50 (converted)
Counter-ions that a name gives are not always drawn.
measured_parameter: EC50 (nM)

O=C(c1cccc2cc[nH]c12)N1CCOC2(CCN(Cc3cc(F)cc(CCNC[C@H](O)c4ccc(O)c5[nH]c(=O)sc45)c3)CC2)C1 | 6.31
CC(C)c1nc(C(=O)N2CC(F)(F)OC3(CCN(Cc4cc(CCNC[C@H](O)c5ccc(O)c6[nH]c(=O)ccc56)cs4)CC3)C2)cs1 [Example 51, ditrifluoroacetate] | 3.16
Cc1nc(C(=O)N2CCOC3(CCN(CCOc4ccc(CCNC[C@H](O)c5ccc(O)c6[nH]c(=O)sc56)cc4)CC3)C2)cs1 [Example 3, dihydrochloride] | 7.94
CC(C)c1nc(C(=O)N2CCOC3(CCN(Cc4cccc(CCNC[C@H](O)c5ccc(O)c6[nH]c(=O)ccc56)c4)CC3)C2)cs1 [Example 23, ditrifluoroacetate] | 15.8
Cc1nc(C(=O)N2CCOC3(CCN(CCc4ccc(CNC[C@H](O)c5ccc(O)c6[nH]c(=O)sc56)s4)CC3)C2)cs1 [Example 21, ditrifluoroacetate] | 200

(a) CC(C)c1nc(C(=O)N2CCOC3(CCN(Cc4cc(CCNC[C@H](O)c5ccc(O)c6[nH]c(=O)sc56)ccc4F)CC3)C2)cs1 [Example 40, ditrifluoroacetate]
(b) CC(C)c1nc(C(=O)N2CCOC3(CCN(Cc4cc(Cl)cc(CCNC[C@H](O)c5ccc(O)c6[nH]c(=O)sc56)c4)CC3)C2)cs1 [Example 52, ditrifluoroacetate]
stdin: Hi team, can someone confirm which has the larger EC50: a or b ? Thanks. Answer format: the label of the selected item.
stdout: a

(1) Cc1nc(C(=O)N2CCOC3(CCN(Cc4cccc(CCNCC(O)c5ccc(O)c6c5OCC(=O)N6)c4)CC3)C2)cs1 (single isomer, unassigned; isomer 1) [Example 11]
(2) CC(C)c1nc(C(=O)N2CCOC3(CCN(CCOc4ccc(CNC[C@H](O)c5ccc(O)c6[nH]c(=O)sc56)cc4)CC3)C2)cs1 [Example 108, formate]
stdin: Hi team, can someone confirm which has the larger EC50: 1 or 2 ? Thanks. Answer format: the label of the selected item.
stdout: 2

----------
Target: Adrenergic β2 (H292 cells) (Homo sapiens, UniProt P07550)
Construct: endogenous in cells; host or cells: H292 cells
Sequence (P07550 whole entry): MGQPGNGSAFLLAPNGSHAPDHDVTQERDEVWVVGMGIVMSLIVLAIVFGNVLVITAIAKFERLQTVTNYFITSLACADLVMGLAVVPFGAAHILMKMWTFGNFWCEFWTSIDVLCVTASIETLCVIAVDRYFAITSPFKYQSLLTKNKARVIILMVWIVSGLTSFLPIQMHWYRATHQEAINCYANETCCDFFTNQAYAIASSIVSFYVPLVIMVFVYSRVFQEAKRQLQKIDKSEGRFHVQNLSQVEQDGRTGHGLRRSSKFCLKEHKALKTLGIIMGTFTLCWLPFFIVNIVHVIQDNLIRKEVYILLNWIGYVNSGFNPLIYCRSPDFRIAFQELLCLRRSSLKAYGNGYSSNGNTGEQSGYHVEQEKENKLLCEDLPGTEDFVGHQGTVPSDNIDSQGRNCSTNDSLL
Experiment: Assay for Adrenergic β2 Mediated cAMP Production (concentration response, AlphaScreen cAMP detection)
Type: cell-based
Settings: cAMP production, 60 minutes at room temperature, 300 μM rolipram, read-out: β2 pEC50 (converted)
Method: Assay for Adrenergic β2 Mediated Camp Production H292 cells are grown in 225 cm2 flasks incubator at 37° C., 5% CO2 in RPMI medium containing 10% (v/v) FBS (foetal bovine serum) and 2 mM L-glutamine. […] The concentration of cAMP (cyclic adenosine monophosphate) in the cell lysate is determined using AlphaScreen™ methodology. […] Intrinsic Activity is expressed as a fraction relative to the maximum activity determined for formoterol in each experiment.
measured_parameter: EC50 (nM)

Worked examples, 3 compounds total:
Cc1nc(C(=O)N2CCOC3(CCN(Cc4ccc(CCNC[C@H](O)c5ccc(O)c6[nH]c(=O)ccc56)cc4)CC3)C2)cs1 [Example 17, ditrifluoroacetate] | 50.1
Cc1nc(C(=O)N2CCOC3(CCN(Cc4cc(F)cc(CCNC[C@H](O)c5ccc(O)c6[nH]c(=O)sc56)c4)CC3)C2)cs1 [Example 19, ditrifluoroacetate] | 3.16
Cc1ccc(C(=O)N2CC(F)(F)OC3(CCN(Cc4cccc(CCNC[C@H](O)c5ccc(O)c6[nH]c(=O)ccc56)c4)CC3)C2)s1 [Example 37, ditrifluoroacetate] | 3.16

(P) CC(C)c1nc(C(=O)N2CCOC3(CCN(Cc4cccc(CCCNC[C@H](O)c5ccc(O)c6[nH]c(=O)sc56)c4F)CC3)C2)cs1 [Example 88, ditrifluoroacetate]
(Q) Cc1nc(C(=O)N2CCOC3(CCN(CCc4ccc(CCNC[C@H](O)c5ccc(O)c6[nH]c(=O)sc56)cc4)CC3)C2)cs1 [Example 5, ditrifluoroacetate]
stdin: Dear colleague, could you let me know whether P or Q has the lower recorded EC50? Thanks. Answer format: the label of the selected item.
stdout: P

----------
Biological target: Adrenergic β2 (H292 cells) (Homo sapiens)
Construct: endogenous in cells; host or cells: H292 cells
Experiment: Assay for Adrenergic β2 Mediated cAMP Production (concentration response, AlphaScreen cAMP detection)
Format: cell-based
Conditions: cAMP production, 60 minutes at room temperature, 300 μM rolipram, read-out: β2 pEC50 (converted)
Counter-ions that a name gives are not always drawn.
measured_parameter: EC50 (nM)

Worked examples, 5 compounds total:
CC(C)Cc1nc(C(=O)N2CCOC3(CCN(Cc4cccc(CCNC[C@H](O)c5ccc(O)c6[nH]c(=O)sc56)c4)CC3)C2)cs1 [Example 84, ditrifluoroacetate] | 5.01
CCc1ccc(C(=O)N2CCOC3(CCN(Cc4cccc(CCNC[C@H](O)c5ccc(O)c6[nH]c(=O)ccc56)c4)CC3)C2)s1 [Example 12, ditrifluoroacetate] | 10
O=C(c1ccc(Cl)s1)N1CCOC2(CCN(CCCCCCCCCNC[C@H](O)c3ccc(O)c4[nH]c(=O)sc34)CC2)C1 | 12.6
CC(C)c1nc(C(=O)N2CCOC3(CCN(Cc4cccc5c(CNC[C@H](O)c6ccc(O)c7[nH]c(=O)sc67)cccc45)CC3)C2)cs1 [Example 62, ditrifluoroacetate] | 251
CC(C)c1nc(C(=O)N2CCOC3(CCN(CCCCCCCC(C)(C)CNC[C@H](O)c4ccc(O)c5[nH]c(=O)sc45)CC3)C2)cs1 [Example 103, formate] | 251

(a) CC(CCCCCCCN1CCC2(CC1)CN(C(=O)c1csc(C(C)C)n1)CCO2)CNC[C@H](O)c1ccc(O)c2[nH]c(=O)sc12 (stereo partly shown) [Example 283, formate]
(b) O=C(c1csc(C2CC2)n1)N1CCOC2(CCN(Cc3cc(F)cc(CCNC[C@H](O)c4ccc(O)c5[nH]c(=O)sc45)c3)CC2)C1 [Example 57, ditrifluoroacetate]
(c) Cc1nc(C(=O)N2CCOC3(CCN(CCCCCCCCCNC[C@H](O)c4ccc(O)c5[nH]c(=O)sc45)CC3)C2)c(C)s1
(d) CC(C)c1ccc(C(=O)N2CCOC3(CCN(Cc4cccc(CCNC[C@H](O)c5ccc(O)c6[nH]c(=O)sc56)c4)CC3)C2)s1 [Example 268, ditrifluoroacetate]
(e) CC(C)c1nc(C(=O)N2CCOC3(CCN(Cc4csc(CCNC[C@H](O)c5ccc(O)c6[nH]c(=O)sc56)c4)CC3)C2)cs1 [Example 278, ditrifluoroacetate]
stdin: Order the items by recorded EC50; the first position goes to the largest value. Returns: the labels arranged in the requested order.
stdout: a, c, d, b, e
(a: 79.4 nM, c: 31.6 nM, d: 10 nM, b: 6.31 nM, e: 3.98 nM)

----------
Target: human muscarinic acetylcholine M3 receptor (M3-ACh) (Homo sapiens)
Construct: expressed in transfected cells; host or cells: CHO-K1 (Chinese Hamster Ovary) cell membranes
Sequence (P20309 whole entry): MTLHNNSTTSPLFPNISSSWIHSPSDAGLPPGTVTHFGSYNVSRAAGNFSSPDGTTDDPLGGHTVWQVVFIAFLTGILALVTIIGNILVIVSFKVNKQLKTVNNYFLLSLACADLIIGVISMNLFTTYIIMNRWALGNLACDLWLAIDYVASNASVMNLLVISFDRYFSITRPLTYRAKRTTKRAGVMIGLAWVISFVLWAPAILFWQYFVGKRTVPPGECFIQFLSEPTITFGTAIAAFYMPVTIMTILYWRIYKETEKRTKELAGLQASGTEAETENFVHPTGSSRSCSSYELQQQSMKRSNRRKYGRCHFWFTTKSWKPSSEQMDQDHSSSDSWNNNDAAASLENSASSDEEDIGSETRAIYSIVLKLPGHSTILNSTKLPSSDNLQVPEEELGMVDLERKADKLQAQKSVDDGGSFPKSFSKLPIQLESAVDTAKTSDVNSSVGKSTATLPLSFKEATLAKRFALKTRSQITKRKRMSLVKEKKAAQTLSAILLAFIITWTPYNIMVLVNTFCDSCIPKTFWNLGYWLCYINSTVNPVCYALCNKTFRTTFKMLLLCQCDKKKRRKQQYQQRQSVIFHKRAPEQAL
Test: Muscarinic 3 Receptor Binding Assay ([3H]NMS competition, SPA)
Conditions: [3H]NMS 0.1 nM, CHO-K1 cell membranes, 16 hours at room temperature; read-out: M3 pIC50 (converted)
Where a name gives a salt, the structure may show the parent alone.
measured_parameter: IC50 (nM)

Cc1ccc(C(=O)N2CCOC3(CCN(Cc4cc(CCNC[C@H](O)c5ccc(O)c6[nH]c(=O)sc56)cc(F)c4F)CC3)C2)s1 [Example 32, ditrifluoroacetate] | 39.8
Cc1csc(C(=O)N2CCOC3(CCN(Cc4cc(F)cc(CCNC[C@H](O)c5ccc(O)c6[nH]c(=O)sc56)c4)CC3)C2)c1 [Example 60, ditrifluoroacetate] | 3.98
CC(C)c1nc(C(=O)N2CCOC3(CCN(Cc4cccc(CCNC[C@H](O)c5ccc(O)c6[nH]c(=O)sc56)c4Cl)CC3)C2)cs1 [Example 80, ditrifluoroacetate] | 5.01

(P) O=C(c1ccc2c(c1)CCO2)N1CCOC2(CCN(Cc3cc(F)cc(CCNC[C@H](O)c4ccc(O)c5[nH]c(=O)sc45)c3)CC2)C1
(Q) CC(C)c1nc(C(=O)N2CCOC3(CCN(Cc4cc(F)cc(CCNC[C@H](O)c5ccc(O)c6[nH]c(=O)sc56)c4)CC3)C2)cs1 [Example 42, ditrifluoroacetate]
stdin: Dear colleague, could you let me know whether P or Q has the lower recorded IC50? Thanks. Answer format: the label of the selected item.
stdout: Q
(Q: 0.631 nM, P: 25.1 nM)

(A) CC(C)c1cc(C(=O)N2CCOC3(CCN(Cc4cccc(CC(C)(C)NC[C@H](O)c5ccc(O)c6[nH]c(=O)ccc56)c4)CC3)C2)cs1 [Example 275, ditrifluoroacetate]
(B) O=C(c1csc(C(F)(F)F)n1)N1CCOC2(CCN(Cc3cccc(CCNC[C@H](O)c4ccc(O)c5[nH]c(=O)ccc45)c3)CC2)C1 [Example 25, ditrifluoroacetate]
stdin: Dear colleague, could you let me know whether A or B has the lower recorded IC50? Thanks. Answer format: the label of the selected item.
stdout: B
(B: 1 nM, A: 1.58 nM)

(P) CC(C)c1cc(C(=O)N2CCOC3(CCN(Cc4cccc(C[C@@H](C)NC[C@H](O)c5ccc(O)c6[nH]c(=O)ccc56)c4)CC3)C2)cs1 [Example 276, ditrifluoroacetate]
(Q) CC(C)c1cnc(C(=O)N2CCOC3(CCN(Cc4cc(F)cc(CCNC[C@H](O)c5ccc(O)c6[nH]c(=O)sc56)c4)CC3)C2)s1 [Example 54, ditrifluoroacetate]
(R) CC(C)c1cc(C(=O)N2CCOC3(CCN(Cc4cccc(CCNC[C@H](O)c5ccc(O)c6[nH]c(=O)ccc56)c4)CC3)C2)cs1 [Example 83, ditrifluoroacetate]
stdin: # rank by IC50, ascending (min first) Returns: the labels arranged in the requested order.
stdout: R, P, Q

(1) Cc1ccc(C(=O)N2CCOC3(CCN(CCc4cccc(CNC[C@H](O)c5ccc(O)c6[nH]c(=O)sc56)c4)CC3)C2)s1 [Example 20, ditrifluoroacetate]
(2) CC(C)c1nc(C(=O)N2CCOC3(CCN(CCCCCCCC(C)(C)CNC[C@H](O)c4ccc(O)c5[nH]c(=O)sc45)CC3)C2)cs1 [Example 103, formate]
stdin: Dear colleague, could you let me know whether 1 or 2 has the lower recorded IC50? Thanks. Answer format: the label of the selected item.
stdout: 2
(2: 1 nM, 1: 31.6 nM)

(A) CCc1cc(C(=O)N2CCOC3(CCN(Cc4cc(F)cc(CCNC[C@H](O)c5ccc(O)c6[nH]c(=O)sc56)c4)CC3)C2)cs1 [Example 93, ditrifluoroacetate]
(B) O=C(c1nc2ccccc2s1)N1CCOC2(CCN(CCOc3ccc(CNC[C@H](O)c4ccc(O)c5[nH]c(=O)sc45)cc3)CC2)C1 [Example 106, formate]
(C) O=C(c1cccc2cc[nH]c12)N1CCOC2(CCN(Cc3cc(F)cc(CCNC[C@H](O)c4ccc(O)c5[nH]c(=O)sc45)c3)CC2)C1
(D) Cc1nc(C(=O)N2CCOC3(CCN(Cc4cccc(CCNCC(O)c5ccc(O)c6c5OCC(=O)N6)c4)CC3)C2)cs1 (single isomer, unassigned; isomer 1) [Example 11]
(E) Cc1nc(C(=O)N2CCOC3(CCN(CCOc4ccc(CCNC[C@H](O)c5ccc(O)c6[nH]c(=O)sc56)cc4)CC3)C2)cs1 [Example 3, dihydrochloride]
stdin: Order the items by recorded IC50; the first position goes to the largest value. Returns: the labels arranged in the requested order.
stdout: B, C, A, E, D

(I) Cc1ccc(C(=O)N2CCOC3(CCN(Cc4cccc(OCCNC[C@H](O)c5ccc(O)c6[nH]c(=O)sc56)c4)CC3)C2)s1 [Example 38, ditrifluoroacetate]
(II) CC(CCCCCCCN1CCC2(CC1)CN(C(=O)c1csc(C(C)C)n1)CCO2)CNC[C@H](O)c1ccc(O)c2[nH]c(=O)sc12 (stereo partly shown) [Example 283, formate]
(III) CC(C)Cc1nc(C(=O)N2CCOC3(CCN(Cc4cccc(CCNC[C@H](O)c5ccc(O)c6[nH]c(=O)sc56)c4F)CC3)C2)cs1 [Example 72, ditrifluoroacetate]
stdin: Order the items by recorded IC50; the first position goes to the largest value. Returns: the labels arranged in the requested order.
stdout: III, I, II
(III: 10 nM, I: 2.51 nM, II: 1.26 nM)

(a) Cc1ccc(C(=O)N2CCOC3(CCN(CCCCCCCCCNC[C@H](O)c4ccc(O)c5[nH]c(=O)sc45)CC3)C2)o1
(b) CC(C)c1csc(C(=O)N2CCOC3(CCN(Cc4cccc(CCNC[C@H](O)c5ccc(O)c6[nH]c(=O)ccc56)c4)CC3)C2)n1 [Example 76, ditrifluoroacetate]
stdin: Hi team, can someone confirm which has the larger IC50: a or b ? Thanks. Answer format: the label of the selected item.
stdout: a
